This collection of values is drawn from patent US8124617B2.

- system: GST-hLGK1 (human hepatic GK) (Homo sapiens, UniProt P35557)
- Sequence (P35557 1-464 isoform P35557-3): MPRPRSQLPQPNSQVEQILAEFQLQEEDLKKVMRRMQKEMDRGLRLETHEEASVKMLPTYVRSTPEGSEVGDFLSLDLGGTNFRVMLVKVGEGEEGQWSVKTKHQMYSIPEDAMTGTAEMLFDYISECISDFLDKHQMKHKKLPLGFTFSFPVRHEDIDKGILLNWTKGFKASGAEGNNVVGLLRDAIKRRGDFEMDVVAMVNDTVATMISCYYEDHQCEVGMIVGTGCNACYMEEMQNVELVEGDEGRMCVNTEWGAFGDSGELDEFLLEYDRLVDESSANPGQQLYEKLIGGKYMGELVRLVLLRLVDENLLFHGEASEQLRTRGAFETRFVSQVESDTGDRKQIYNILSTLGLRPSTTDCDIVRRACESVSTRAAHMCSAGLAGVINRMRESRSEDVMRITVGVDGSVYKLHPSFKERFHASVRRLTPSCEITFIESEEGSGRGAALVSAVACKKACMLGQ
- protocol_details: Measurement of GK activation value (Mant-ATP/Mant-ADP capillary electrophoresis, reaction rate)
- assay_context: concentration necessary for activation of 50% of the maximum activity value; 37° C., 60 min
Kindly supply the reported pEC50 values for the records listed here.
Give bare numbers, as −log10 of the molar value.

[[record]]
structure_smiles_string = "CC(C)Oc1cc(OCc2ccccc2)ccc1-c1nc2cc(-c3ccc(F)cc3)cnc2[nH]1"
quantity = "pEC50"
assay_result = 6.54

[[record]]
structure_smiles_string = "CC(C)Oc1cc(OCc2ccccc2)cc(-c2nc3cccnc3[nH]2)c1"
quantity = "pEC50"
assay_result = 6.89


Give pEC50 for each of the items listed below.
1. CC(C)Oc1cc(OCc2ccccc2)ccc1-c1nc2cc(-c3cccc(F)c3)cnc2[nH]1
2. COc1ccc(-c2cnc3[nH]c(-c4cc(OCc5ccccc5)ccc4OC(C)C)nc3c2)c(OC)c1
3. CC(C)Oc1cc(OCc2ccccc2)cc(-c2nc3cc(-c4cccnc4)cnc3[nH]2)c1

**A:**
6.82
6.55
5.96

Give pEC50 for each of the items listed below.
1. COc1ccc(OCc2ccccc2)cc1-c1nc2cccnc2[nH]1
2. COC(=O)CNCc1cnc2[nH]c(-c3cc(OCc4ccccc4)ccc3OC(C)C)nc2c1
3. CC(C)Oc1ccc(OCc2ccccc2)cc1-c1nc2cc(CNCCOc3ccccc3)cnc2[nH]1

**A:**
1: 5.68; 2: 5.43; 3: 6.09

###

Kindly supply the reported EC50 values for the records listed here.
- system: glucokinase (residues 12-465 of the human enzyme) (Homo sapiens, UniProt P35557)
- Construct: FLAG (vector pFLAG-CTC) (C); made in house; host or cells: E. coli DH10b-T1r (pFLAG-CTC)
- Sequence (P35557 12-465): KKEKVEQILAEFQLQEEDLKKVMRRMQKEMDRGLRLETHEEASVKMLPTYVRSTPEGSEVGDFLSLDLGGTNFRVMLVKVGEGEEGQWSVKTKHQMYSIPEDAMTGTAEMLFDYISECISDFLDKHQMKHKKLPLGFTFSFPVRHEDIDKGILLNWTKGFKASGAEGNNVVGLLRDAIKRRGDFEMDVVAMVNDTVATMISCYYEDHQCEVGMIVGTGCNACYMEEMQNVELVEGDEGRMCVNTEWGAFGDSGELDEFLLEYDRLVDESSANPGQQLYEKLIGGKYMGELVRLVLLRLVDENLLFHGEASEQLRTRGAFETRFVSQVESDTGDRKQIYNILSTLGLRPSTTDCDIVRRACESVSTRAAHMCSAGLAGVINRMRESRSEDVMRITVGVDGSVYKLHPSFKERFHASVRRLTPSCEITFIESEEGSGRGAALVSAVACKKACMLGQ
- protocol_details: Measurement of GK activation value (ATP/glucose, luciferase luminescence)
- Format: biochemical
- assay_context: Kact = concentration that displays 50% of the maximal increase in GK activity; room temperature, 60 min; values given as ranges; read-out: pKact

A selection of reference data follows.
[[record]]
compound = "COc1ccc(/C=C/c2ccncc2)cc1-c1nc2cccnc2[nH]1 [Example 246]"
assay_result = "398 to 1000 nM"

[[record]]
compound = "CC(C)Oc1cc(OCc2ccccc2)cc(-c2nc3cccnc3[nH]2)c1 [Example 158]"
assay_result = "126 to 316 nM"

[[record]]
compound = "COC[C@@H](C)Oc1cc(OCc2ccccc2F)cc(-c2nc3cc(Br)cnc3[nH]2)c1 [Example 174]"
assay_result = "126 to 316 nM"

[[record]]
compound = "COc1ccc(OCc2ccccc2)cc1-c1nc2cc(Br)cnc2[nH]1 [Example 243]"
assay_result = "126 to 316 nM"

[[record]]
compound = "COC[C@@H](C)Oc1cc(OCc2ccccc2F)cc(-c2nc3cc(Cl)cnc3[nH]2)c1 [Example 173]"
assay_result = "126 to 316 nM"


Give EC50 for each of the items listed below.
1. Cn1ccnc1COc1cc(OCCc2ccsc2)cc(-c2nc3cc(Br)cnc3[nH]2)c1 [Example 164]
2. COC[C@H](C)Oc1cc(OCc2ccccc2F)cc(-c2nc3cc(CCCO)cnc3[nH]2)c1 [Example 177]
3. CC(C)Oc1cc(OCCCc2ccccc2)cc(-c2nc3cccnc3[nH]2)c1 [Example 159]
4. Cn1ccnc1COc1cc(OCc2ccccc2F)cc(-c2nc3cc(Br)cnc3[nH]2)c1 [Example 167]
5. Cn1ccnc1COc1cc(OCc2ccccc2)cc(-c2nc3cccnc3[nH]2)c1 [Example 162]
6. COC[C@@H](C)Oc1cc(OCc2ccccc2F)cc(-c2nc3cccnc3[nH]2)c1 [Example 172]

**A:**
126 to 316 nM
398 to 1000 nM
398 to 1000 nM
< 100 nM
126 to 316 nM
398 to 1000 nM

###

- system: glucokinase (residues 12-465 of the human enzyme) (Homo sapiens, UniProt P35557)
- Construct: FLAG (vector pFLAG-CTC) (C); made in house; host or cells: E. coli DH10b-T1r (pFLAG-CTC)
- protocol_details: Measurement of GK activation value (ATP/glucose, luciferase luminescence)
- Assay type: biochemical
- assay_context: calculated maximal gain in GK enzyme activity at a saturating concentration of the compound; values given as ranges; read-out: % ACTmaxc
quantity: Emax

A selection of reference data follows.
[[record]]
molecule = "CC(C)Oc1cc(OCc2ccccc2)cc(-c2nc3cccnc3[nH]2)c1 [Example 158]"
system = "glucokinase (residues 12-465 of the human enzyme) (Homo sapiens, UniProt P35557)"
assay_result = "20 to 29.9%"

[[record]]
molecule = "Brc1cnc2[nH]c(-c3ccccc3Oc3ccccc3)nc2c1 [Example 188]"
system = "glucokinase (residues 12-465 of the human enzyme) (Homo sapiens, UniProt P35557)"
assay_result = "30 to 49.9%"

[[record]]
molecule = "COC[C@@H](C)Oc1cc(OCc2ccccc2F)cc(-c2nc3cc(Br)cnc3[nH]2)c1 [Example 174]"
system = "glucokinase (residues 12-465 of the human enzyme) (Homo sapiens, UniProt P35557)"
assay_result = "30 to 49.9%"

[[record]]
molecule = "COc1ccc(OCc2ccccc2)cc1-c1nc2cc(Br)cnc2[nH]1 [Example 243]"
system = "glucokinase (residues 12-465 of the human enzyme) (Homo sapiens, UniProt P35557)"
assay_result = "30 to 49.9%"

[[record]]
molecule = "Cn1ccnc1COc1cc(OCCc2ccsc2)cc(-c2nc3cc(Br)cnc3[nH]2)c1 [Example 164]"
system = "glucokinase (residues 12-465 of the human enzyme) (Homo sapiens, UniProt P35557)"
assay_result = "50 to 69.9%"

[[record]]
molecule = "Cn1ccnc1COc1cc(OCc2ccccc2)cc(-c2nc3cccnc3[nH]2)c1 [Example 162]"
system = "glucokinase (residues 12-465 of the human enzyme) (Homo sapiens, UniProt P35557)"
assay_result = "> 70%"


Now for the molecule whose Emax we want.
**Q:** Retrieve Emax measured for CC(C)Oc1cc(OCCc2ccccc2)cc(-c2nc3cccnc3[nH]2)c1 [Example 161] and print it.
**A:** 30 to 49.9%

###

Kindly supply the reported melting point values for the records listed here.

A selection of reference data follows.
[[record]]
structure_smiles_string = "CC(C)Oc1ccc(OCc2ccccc2)cc1-c1nc2ccc(C#N)nc2[nH]1"
assay_result = "214 to 215 °C"

[[record]]
structure_smiles_string = "COC(=O)CNCc1cnc2[nH]c(-c3cc(OCc4ccccc4)ccc3OC(C)C)nc2c1"
assay_result = "69 to 71 °C"

[[record]]
structure_smiles_string = "CC(C)Oc1ccc(OCc2ccccc2)cc1-c1nc2ccc(CO)nc2[nH]1"
assay_result = "167 to 168 °C"

[[record]]
structure_smiles_string = "CC(C)Oc1cc(OCCCc2cccnc2)cc(-c2nc3cccnc3[nH]2)c1"
assay_result = "110 to 112 °C"

[[record]]
structure_smiles_string = "CC(C)Oc1ccc(OCc2ccccc2)cc1-c1nc2cc(CNCc3ccccc3)cnc2[nH]1"
assay_result = "92 to 94 °C"


Give melting point for each of the items listed below.
1. CC(C)Oc1ccc(OCc2ccccc2)cc1-c1nc2cc(C=O)cnc2[nH]1
2. CC(C)CNCc1cnc2[nH]c(-c3cc(OCc4ccccc4)ccc3OC(C)C)nc2c1
3. CC(C)Oc1ccc(OCc2ccccc2)cc1-c1nc2cc(CNCC(=O)O)cnc2[nH]1
4. CC(C)Oc1cc(OCCc2ccsc2)cc(-c2nc3cccnc3[nH]2)c1
5. COCCNCc1cnc2[nH]c(-c3cc(OCc4ccccc4)ccc3OC(C)C)nc2c1

**A:**
1. 170 to 171 °C
2. 101 to 103 °C
3. 182 to 184 °C
4. 82 to 83 °C
5. 80 to 81 °C

###

- system: glucokinase (residues 12-465 of the human enzyme) (Homo sapiens)
- Construct: FLAG (vector pFLAG-CTC) (C); made in house; host or cells: E. coli DH10b-T1r (pFLAG-CTC)
- protocol_details: Measurement of GK activation value (ATP/glucose, luciferase luminescence)
- Assay type: biochemical
- assay_context: calculated maximal gain in GK enzyme activity at a saturating concentration of the compound; values given as ranges; read-out: % ACTmaxc
Kindly supply the reported Emax values for the records listed here.

A selection of reference data follows.
[[record]]
structure_smiles_string = "Cn1ccnc1COc1cc(OCc2ccccc2)cc(-c2nc3cc(Br)cnc3[nH]2)c1"
assay_result = "50 to 69.9%"

[[record]]
structure_smiles_string = "Cn1ccnc1COc1cc(OCc2ccccc2F)cc(-c2nc3cc(Cl)cnc3[nH]2)c1"
assay_result = "> 70%"

[[record]]
structure_smiles_string = "CC(C)Oc1ccc(OCc2ccccc2)cc1-c1nc2cc(-c3cccc(F)c3)cnc2[nH]1"
assay_result = "20 to 29.9%"

[[record]]
structure_smiles_string = "Brc1cnc2[nH]c(-c3ccccc3Oc3cccnc3)nc2c1"
assay_result = "20 to 29.9%"

[[record]]
structure_smiles_string = "Cn1ccnc1COc1cc(OCc2ccccc2F)cc(-c2nc3cc(Br)cnc3[nH]2)c1"
assay_result = "> 70%"

[[record]]
structure_smiles_string = "CC(C)Oc1cc(OCCCc2ccccc2)cc(-c2nc3cccnc3[nH]2)c1"
assay_result = "20 to 29.9%"


**Q:** Retrieve Emax measured for "CC(C)Oc1ccc(/C=C/c2ccccc2)cc1-c1nc2cccnc2[nH]1" and print it.
**A:** > 70%
